Biological target: T1, recombinant mf IL1RAP aa21-367 (cynomolgus monkey (Macaca fascicularis), UniProt A0A2K5X5J5 21-367)
T1 construct: also called cynomolgus monkey IL1RAP; cyno IL1RAP
T1 sequence: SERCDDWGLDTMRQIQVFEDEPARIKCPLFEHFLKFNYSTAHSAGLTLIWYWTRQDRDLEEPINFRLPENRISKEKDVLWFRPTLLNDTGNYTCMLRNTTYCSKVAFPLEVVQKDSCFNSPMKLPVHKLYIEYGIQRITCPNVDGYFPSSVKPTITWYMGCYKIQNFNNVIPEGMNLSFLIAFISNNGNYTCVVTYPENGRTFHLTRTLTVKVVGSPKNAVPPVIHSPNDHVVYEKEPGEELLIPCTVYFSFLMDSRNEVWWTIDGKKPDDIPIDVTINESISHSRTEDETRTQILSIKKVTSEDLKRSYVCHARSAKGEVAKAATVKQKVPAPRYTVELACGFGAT
Assay: binding ELISA, coated recombinant mf IL1RAP aa21-367

[
  {
    "binder": "h48D2 VH3:VL3 (antibody, human IgG1, kappa, L234A L235A, V domains shown, Humanized; also called VL3:VH3) VH: EVQLLESGGGLVLPGGSLRLSCAASGPSLSHFDITWVRQAPGKGLEWVSTISPGVSTYYASWAKSRFTISRDNSKNTLYLQMSSLRAEDTAVYYCARGGVGSSWKAFDLWGLGTTVTVSS VL: DILLTQTPSVVSASVGDRVTITCQASESISTALAWYQQKPGQAPRLLIYKASTLPSGVPSRFRGSGSGTDFTLTITSLQPEDFATYYCQQGFSSGNVHNAFGGGTRLEIKR",
    "IC50, µg/mL": 0.0279
  },
  {
    "binder": "h48D2 VH2:VL3 (antibody, human IgG1, kappa, L234A L235A, V domains shown, Humanized; also called VL3:VH2) VH: EVQLVESGGALVQPGGSLRLSCIVSGPSLSHFDITWFRQAPGKGLEWVATISPGVSTYYASWAKSRFTISTDTSKNTLFLQMDSLRAEDTAVYYCARGGVGSSWKAFDLWGPGTLVTVSS VL: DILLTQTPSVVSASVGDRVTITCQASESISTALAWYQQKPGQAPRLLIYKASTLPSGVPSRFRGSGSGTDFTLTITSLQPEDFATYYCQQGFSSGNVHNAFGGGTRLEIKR",
    "IC50, µg/mL": 0.0314
  },
  {
    "binder": "h48D2 VH3:VL4 (antibody, human IgG1, kappa, L234A L235A, V domains shown, Humanized; also called VL4:VH3) VH: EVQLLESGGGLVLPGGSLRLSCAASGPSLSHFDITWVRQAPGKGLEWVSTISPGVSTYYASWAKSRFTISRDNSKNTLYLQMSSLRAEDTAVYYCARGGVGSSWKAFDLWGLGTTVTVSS VL: ELVMTQSPSSVSASVGDRVTITCQASESISTALAWYQQKPGKAPKLLIYKASTLPSGVPSRFSGSGSGTDFTLTINSLQPEDFATYYCQQGFSSGNVHNAFGGGTKVEIKR",
    "IC50, µg/mL": 0.0303
  },
  {
    "binder": "h48D2 VH2:VL2 (antibody, human IgG1, kappa, L234A L235A, V domains shown, Humanized; also called VL2:VH2) VH: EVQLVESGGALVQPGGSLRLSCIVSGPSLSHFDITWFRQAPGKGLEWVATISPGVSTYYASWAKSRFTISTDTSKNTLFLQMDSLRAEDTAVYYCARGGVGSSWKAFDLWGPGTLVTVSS VL: QIVLTQSPATLSASVGDRVTITCQASESISTALAWYQQKPGKAPKLLIYKASTLPSGVPSRFSGSGSGTEFTLTISSLQPDDSATYYCQQGFSSGNVHNAFGQGTKLEIKR",
    "IC50, µg/mL": 0.0292
  },
  {
    "binder": "h48D2 VH3:VL1 (antibody, human IgG1, kappa, L234A L235A, V domains shown, Humanized; also called VL1:VH3) VH: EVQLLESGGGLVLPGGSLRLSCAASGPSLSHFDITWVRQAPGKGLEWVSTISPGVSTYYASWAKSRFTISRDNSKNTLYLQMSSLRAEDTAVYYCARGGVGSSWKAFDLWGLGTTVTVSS VL: DIVMTQSPSSLSASVGDRVTITCQASESISTALAWYQQKPGKAPKLLIYKASTLPSGVPSRFSGSGSGTDFTLTISSLQPEDFATYYCQQGFSSGNVHNAFGGGTKVVIKR",
    "IC50, µg/mL": 0.0294
  },
  {
    "binder": "h48D2 VH5:VL2 (antibody, human IgG1, kappa, L234A L235A, V domains shown, Humanized; also called VL2:VH5) VH: QEQLEESGGGLVKPGGTLSLTCTVSGPSLSHFDITWIRQAPGSGLEWIGTISPGVSTYYASWAKSRVTISVDTSLNTVSLKLSSVTAADTATYFCARGGVGSSWKAFDLWGPGTLVTISS VL: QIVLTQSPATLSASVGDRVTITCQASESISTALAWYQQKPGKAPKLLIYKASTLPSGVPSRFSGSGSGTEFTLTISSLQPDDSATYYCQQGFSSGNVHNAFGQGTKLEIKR",
    "IC50, µg/mL": 0.0218
  }
]
